Where do the numbers come from? From ChEMBL document CHEMBL1134091.

Assign pKi to each entry below.
Target: 3-dehydroquinate synthase (Escherichia coli K-12)
Sequence (P07639 whole entry): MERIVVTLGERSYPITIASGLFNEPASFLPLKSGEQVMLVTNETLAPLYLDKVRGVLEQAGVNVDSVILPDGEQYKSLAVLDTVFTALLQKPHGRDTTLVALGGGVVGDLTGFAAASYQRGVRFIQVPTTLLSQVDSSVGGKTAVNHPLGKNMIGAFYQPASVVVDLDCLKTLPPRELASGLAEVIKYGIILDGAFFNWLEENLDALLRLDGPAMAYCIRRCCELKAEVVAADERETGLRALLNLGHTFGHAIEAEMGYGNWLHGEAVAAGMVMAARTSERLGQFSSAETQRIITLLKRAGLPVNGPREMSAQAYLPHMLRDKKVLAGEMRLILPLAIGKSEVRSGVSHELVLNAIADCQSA
Assay: Inhibition constant for binding to Co2+ form of 3-dehydroquinate synthase (DHQ) purified from Escherichia coli
Here pKi is given on a logarithmic scale as minus log10 of the concentration in mol/L.

The compound listed as O=C(O)c1cc(O)c(O)c(CP(=O)(O)O)c1 shows pKi equal to 4.68

Briefly, pKi measured for O=P(O)(O)CCc1cccc(O)c1O : 3.70

get_value(item= O=C(O)c1ccc(O)c(O)c1 , readout=pKi) returns 4.36

# pKi (compound: O=C(O)c1cc(O)c(O)c(CCP(=O)(O)O)c1 ) is 5.30

Reported pKi of Oc1ccccc1O : 3.06

###

target: 3-dehydroquinate synthase (Escherichia coli K-12); assay: Inhibition constant for binding to Zn2+ form of 3-dehydroquinate synthase (DHQ) purified from Escherichia coli
pKi: −log10 of the molar value.
Label rule, in plain words: pKi of 6 and up is Fulfilled, under 6 is Not fulfilled.

hey, is pKi for this one >= 6? O=P(O)(O)CCc1cccc(O)c1O
Not fulfilled

Reported pKi at or above 6? O=C(O)c1cc(O)c(O)c(CP(=O)(O)O)c1
Fulfilled

Kindly determine if pKi recorded for Oc1ccccc1O [CATECHOL] is above or exactly 6.
Not fulfilled

Exam item: decide whether the reported pKi for O=C(O)c1ccc(O)c(O)c1 [PROTOCATECHUIC ACID] is at least 6.
Not fulfilled

Can O=C(O)c1cc(O)c(O)c(CCP(=O)(O)O)c1 be said to have pKi at or above 6?
Not fulfilled
